As shown below, each of these molecules has a reported fraction of imaged embryos annotated as normal kidney value.
test system: Danio rerio Tg(wt1b:EGFP) embryo, pronephros; assay: fraction of imaged embryos annotated as normal kidney; higher = less nephrotoxic; extreme values may be limits of the assay; settings: 25 µM; exposure: 24-48 hpf
Structures can show the parent of a compound that is named as a salt.
Readout label: fraction of imaged embryos annotated as normal kidney

* Cc1cccc(Nc2ccncc2S(=O)(=O)NC(=O)NC(C)C)c1 [Torsemide] | 1
* O=P(O)(O)C(O)(Cc1cccnc1)P(=O)(O)O [Risedronic acid monohydrate] | 0.833
* COc1ccccc1O [Guaiacol] | 0.917
* CO/N=C(\C(=O)N[C@@H]1C(=O)N2C(C(=O)O)=C(COC(N)=O)CS[C@H]12)c1ccco1 [Cefuroxime sodium salt] | 1
* Nc1nc(=O)c2c([nH]1)NC[C@@H](CNc1ccc(C(=O)N[C@@H](CCC(=O)O)C(=O)O)cc1)N2C=O [Folinic acid calcium salt] | 0.583
* CN1CC2c3ccccc3Oc3ccc(Cl)cc3C2C1 (stereo not drawn) [Asenapine maleate] | 0.583
* O=C(O)c1cc(/N=N/c2ccc(S(=O)(=O)Nc3ccccn3)cc2)ccc1O [Sulfasalazine] | 0.917
* CNC(=C[N+](=O)[O-])NCCSCc1ccc(CN(C)C)o1 [Ranitidine hydrochloride] | 0.667

Provenance of the data: the supplement of paper PMC7366291
